tested.on: PIK3CA (human)
Form field: IC50 (one value per entry).

{"compound": "Cc1nc2cc(-c3ccc4c(c3)CN(c3nc(CO)nc(C)c3Cc3ccc(F)cc3)CCO4)ccc2[nH]1", "tested.on": "PIK3CA (human)", "property.name": "IC50", "data.value": "≤ 10 nM"}
{"compound": "Cc1cc(Br)c2ncnc(N3CCOc4ccc(-c5ccc6nc(C)[nH]c6c5)cc4C3)c2c1", "tested.on": "PIK3CA (human)", "property.name": "IC50", "data.value": "50 to 250 nM"}
{"compound": "Cc1nc(CN(C)C)nc(N2CCOc3ccc(-c4cnc5sc(N)nc5c4)cc3C2)c1-c1ccccc1", "tested.on": "PIK3CA (human)", "property.name": "IC50", "data.value": "10 to 50 nM"}
{"compound": "Cc1nc(C)c(CC2CC2)c(N2CCOc3ccc(-c4cnc5nc(C6CC6)[nH]c5c4)cc3C2)n1", "tested.on": "PIK3CA (human)", "property.name": "IC50", "data.value": "10 to 50 nM"}
{"compound": "CC1(C)CCc2ncnc(N3CCOc4ccc(-c5cnc(N)c(S(=O)(=O)N6CCC6)c5)cc4C3)c2C1", "tested.on": "PIK3CA (human)", "property.name": "IC50", "data.value": "10 to 50 nM"}

State its IC50 on PIK3CA (human): `CC(C)Nc1nc2ccc(-c3ccc4c(c3)CN(c3ccnc5ccccc35)CCO4)cc2[nH]1`
250 to 1000 nM

How about this compound: `Cc1nc2ncc(-c3ccc4c(c3)CN(c3ncnc(N5CCC5)c3C)CCO4)cc2[nH]1`
50 to 250 nM

How about this compound: `Cc1nc2ccc(-c3ccc4c(c3)CN(c3ncnc5c(C(F)(F)F)cccc35)CCO4)cc2[nH]1`
250 to 1000 nM

How about this compound: `Cc1nc2ccc(-c3ccc4c(c3)CN(c3ncnc5cc(F)ccc35)CCO4)cc2[nH]1`
10 to 50 nM

How about this compound: `COc1ccc(-c2ccc3c(c2)CN(c2nc(CN(C)C)nc4c2CC(C)(C)CC4)CCO3)cc1Cl`
250 to 1000 nM

How about this compound: `Cc1nc2ccc(-c3ccc4c(c3)CN(c3ncnc(C)c3Cc3cccc(C(F)(F)F)c3)CCO4)cc2[nH]1`
50 to 250 nM

---

The following compounds have recorded IC50 on PIK3CA (human).

{"molecule": "COc1cccc(Cc2c(C)ncnc2N2CCOc3ccc(-c4ccc5nc(C)[nH]c5c4)cc3C2)c1", "IC50": "10 to 50 nM"}
{"molecule": "Cc1nc2ncc(-c3ccc4c(c3)CN(c3nc(CO)nc5c3CC(C)(C)CC5)CCO4)cc2[nH]1", "IC50": "10 to 50 nM"}
{"molecule": "COc1cc2c(N3CCOc4ccc(-c5ccc6nc(C)[nH]c6c5)cc4C3)ncnc2cc1OCc1ccccc1", "IC50": "250 to 1000 nM"}

Fill blank: measured IC50 of the compound `COc1cccc2c(N3CCOc4ccc(-c5ccc6nc(C)[nH]c6c5)cc4C3)ncnc12` is ____.
10 to 50 nM

How about this compound: `CC1(C)CCc2ncnc(N3CCOc4ccc(-c5cnc(N)c(S(=O)(=O)NC[C@H]6CCNC6)c5)cc4C3)c2C1`
10 to 50 nM
